Measurement target: NTRK1 (TrkA) (Homo sapiens, UniProt P04629)
Sequence (P04629 33-796): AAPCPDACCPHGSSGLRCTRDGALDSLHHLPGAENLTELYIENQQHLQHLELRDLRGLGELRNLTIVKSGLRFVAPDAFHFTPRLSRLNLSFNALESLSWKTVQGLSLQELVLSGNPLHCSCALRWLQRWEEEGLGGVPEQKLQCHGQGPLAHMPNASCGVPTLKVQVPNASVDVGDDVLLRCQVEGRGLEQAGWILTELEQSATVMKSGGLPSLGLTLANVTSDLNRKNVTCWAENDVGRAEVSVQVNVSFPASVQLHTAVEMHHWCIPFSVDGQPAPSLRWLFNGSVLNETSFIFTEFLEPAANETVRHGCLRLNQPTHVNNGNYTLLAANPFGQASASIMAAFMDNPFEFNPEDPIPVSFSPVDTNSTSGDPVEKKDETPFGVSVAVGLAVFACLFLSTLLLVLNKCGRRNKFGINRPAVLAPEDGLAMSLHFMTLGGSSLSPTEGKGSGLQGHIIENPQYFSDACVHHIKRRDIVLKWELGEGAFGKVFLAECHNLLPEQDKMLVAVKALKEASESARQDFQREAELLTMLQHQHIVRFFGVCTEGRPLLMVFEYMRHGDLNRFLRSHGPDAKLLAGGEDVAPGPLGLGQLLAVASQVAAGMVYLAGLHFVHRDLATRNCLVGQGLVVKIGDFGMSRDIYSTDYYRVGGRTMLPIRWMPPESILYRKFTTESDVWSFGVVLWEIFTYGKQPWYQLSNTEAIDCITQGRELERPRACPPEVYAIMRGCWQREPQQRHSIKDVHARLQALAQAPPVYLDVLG
Assay overview: Binding affinity (Kd), DiscoveRx concentration response curve
Condition: read-out: Binding constant (Kd) NTRK1
Listing of entries alongside the reported Kd.
Express the result in nM but write the number alone.

Cc1ccc(C(=O)Nc2ccc(Oc3cc4cn[nH]c4cc3-c3cn[nH]c3)c(F)c2)c(=O)n1-c1ccc(F)cc1 [M1]; 15

Shifting focus to the compound that follows.
Problem: Identify Kd associated with the compound Cn1ncc2cc(Oc3ccc(NC(=O)c4ccc(CO)n(-c5ccc(F)cc5)c4=O)cc3F)c(-c3cn[nH]c3)cc21 [M2]
Result: 120

====

Measurement target: NTRK3 (TrkC) (Homo sapiens, UniProt Q16288)
Sequence (Q16288 32-839): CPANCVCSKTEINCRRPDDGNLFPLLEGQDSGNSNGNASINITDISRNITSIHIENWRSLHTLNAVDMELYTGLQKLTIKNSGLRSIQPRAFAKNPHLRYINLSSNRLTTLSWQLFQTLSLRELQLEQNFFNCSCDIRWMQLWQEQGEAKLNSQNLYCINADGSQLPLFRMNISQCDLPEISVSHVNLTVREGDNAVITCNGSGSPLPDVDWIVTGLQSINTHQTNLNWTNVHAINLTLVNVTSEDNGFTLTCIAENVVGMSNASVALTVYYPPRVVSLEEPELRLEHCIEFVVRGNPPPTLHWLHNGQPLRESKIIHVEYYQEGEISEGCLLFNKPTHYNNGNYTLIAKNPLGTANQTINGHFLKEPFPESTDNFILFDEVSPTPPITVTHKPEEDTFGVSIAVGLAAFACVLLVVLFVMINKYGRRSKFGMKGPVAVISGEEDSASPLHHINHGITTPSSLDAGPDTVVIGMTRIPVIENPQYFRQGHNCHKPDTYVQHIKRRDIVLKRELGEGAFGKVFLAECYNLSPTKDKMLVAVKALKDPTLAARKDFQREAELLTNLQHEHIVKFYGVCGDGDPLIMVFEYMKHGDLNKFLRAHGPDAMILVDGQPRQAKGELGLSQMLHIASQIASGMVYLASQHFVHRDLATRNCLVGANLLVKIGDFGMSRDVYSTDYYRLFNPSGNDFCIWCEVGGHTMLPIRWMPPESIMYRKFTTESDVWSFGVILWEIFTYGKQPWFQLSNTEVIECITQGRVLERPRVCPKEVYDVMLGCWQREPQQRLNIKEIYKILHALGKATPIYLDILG
Assay overview: Binding affinity (Kd), DiscoveRx concentration response curve
Condition: read-out: Binding constant (Kd) NTRK3
Listing of entries alongside the reported Kd.
Express the result in µM but write the number alone.

Cc1ccc(C(=O)Nc2ccc(Oc3cc4cn[nH]c4cc3-c3cn[nH]c3)c(F)c2)c(=O)n1-c1ccc(F)cc1 [M1]; 0.041

Shifting focus to the molecule that follows.
Problem: GET Kd where system = NTRK3 (TrkC) (Homo sapiens, UniProt Q16288) and item = Cn1ncc2cc(Oc3ccc(NC(=O)c4ccc(CO)n(-c5ccc(F)cc5)c4=O)cc3F)c(-c3cn[nH]c3)cc21 [M2]
Result: 0.16
